This section presents compounds with their documented IC90 values.
- Tested on: M. tuberculosis H37Rv growth inhibition, 7H9 media
- test: M. tuberculosis growth inhibition, HTS (AID 449762);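 note: bacterial growth assessed after seven days of incubation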
- details: measured here: IC90 growth inhibition
Results filed as inconclusive are left out.
Use µM as the unit, but write only the number.

For record O=C(c1cc(COc2ccc(F)cc2F)on1)N1CCCC(c2ccccc2)C1 (stereo unspecified) the listed IC90 is 39.8

For record CCOC(=O)CSc1ncc(OC)c(Sc2ccc(OC)cc2)n1 the listed IC90 is 73.4

* * *

- Test system: M. tuberculosis H37Rv growth inhibition, 7H9 media
- test: M. tuberculosis growth inhibition, HTS (AID 449762);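 note: bacterial growth assessed after seven days of incubation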
- details: measured here: IC90 growth inhibition
Records with an inconclusive call do not appear.
This section presents compounds with their documented IC90 values.
Use µM as the unit, but write only the number.

Given the compound CC(C)CS(=O)(=O)C1=NN2C(=N)/C(=C\c3ccc(OC(=O)c4ccco4)cc3)C(=O)N=C2S1 and test system M. tuberculosis H37Rv growth inhibition, 7H9 media, the measured IC90 is 25.9

Given the compound Cn1cc(/C=C2\C(=O)NC(=O)N(c3ccccc3)C2=O)c2ccccc21 and test system M. tuberculosis H37Rv growth inhibition, 7H9 media, the measured IC90 is 24.2

Given the compound CC(C)C[C@H](NC(=O)c1nc[nH]c1C(=O)NC1CCN(C(=O)OC(C)(C)C)CC1)C(=O)OCc1ccccc1 and test system M. tuberculosis H37Rv growth inhibition, 7H9 media, the measured IC90 is 25.4

Given the compound c1ccc2c(C3=NNC(=NC4CCCCC4)SC3)c[nH]c2c1 and test system M. tuberculosis H37Rv growth inhibition, 7H9 media, the measured IC90 is 47.2

Given the compound COc1cccc(-n2nnc3c(=O)n(CC(=O)N4CCC(Cc5ccccc5)CC4)cnc32)c1 and test system M. tuberculosis H37Rv growth inhibition, 7H9 media, the measured IC90 is 36.7

Given the compound Cc1cc(OCc2cc(C(=O)N(C)CCc3cnn(C)c3)no2)cc(C)c1Cl and test system M. tuberculosis H37Rv growth inhibition, 7H9 media, the measured IC90 is 51.4

The measured values listed here are drawn from PubChem BioAssay AID449762.
